These measurements were taken from patent US20180186897A1.

# Tested system: erythrocytes infected with P. falciparum field isolate 9775
# Assay text: flow cytometry, staining of IEs
Give % parasite recognition for every item shown.

binder="MGC17 (antibody) VH: EVQLVESGGGLVQPGGSLKLSCVASGFNFRKSWMSWVRQAPGKGLEWVANIREDGSKAYYVDSVKGRFTVSRDNAKNSLYLQINSLRADDTAVYYCARDRFCSDDEDHSHGAEDLPRPSISAEEGTVIPLGSRLTFVCRGPVGVHTFRLERDRRSTYNDTEDVSHPSPSESEARFRIDSVSEGNAGLYRCVYYKSPEWSKQSDYLELLVKGQEVTWALFTSCGGDGEVPDYDMDVRGKGTTVTVSS VL: DIVMTQSPDSLAVSLGERATINCKSSQSVLYRSKNKKYLAWFQQRPGQPPKVLIYWTSTRASGVPDRFSGSGSGTDFTLTISSLQADDVAVYYCQQYFIFPYTFGQGTKLEIR" value=2.5%

Turning now to a further record.
Form field: reported % parasite recognition of MGC32 (antibody) VH: EVQLVESGGGLVQPGGSLRLSCVASGFNFRKSWMGWVRQAPGKGLEWVANIREDGSESFYADSVKGRFTVSRDNAKKSLYLHINSLRAEDTAVYYCARDRFCNDDEIHRHGQEDLPRPSISAAEGTVIPLGSHVTFVCRGPVGVQTFRLEKDSRSIYNDTENVSQPSPSESEARFRIDSVSEGNAGLYRCVYYKAPKWSAQSDYLELLVKGQEVTWALFTSCGGDGEEPDYDMDVRGKGTTVTVSS VL: DILMTQSPDSLAVSLGERATINCKSSQSVLYRSKNKNYLAWFQQKPGQPPKVLIYSTSTRASGVPDRFTGSGSGTDFTLTISSLQAEDVAVYYCLQYYITPYTFGQGTKLEIK
7.9%
